CC50 values for the molecules below.
Tested on: HEK-293T
assay protocol: Cytotoxicity against human HEK293T cells incubated for 48 hrs by MTT assay
Assay type: cell-based
condition: hek-293t, 48 h
value kind: CC50 (µM)

smiles: CC1(C)[C@H]2CC[C@]1(C)[C@H](OC(=O)CCN1CCCCC1)C2.Cl
measurement target: HEK-293T
output unit: µM
endpoint value: 87
//
smiles: CC1(C)[C@H]2CC[C@]1(C)[C@H](OC(=O)CCN1CCCCC1)C2
measurement target: HEK-293T
output unit: µM
endpoint value: 290

----------
assay protocol: in vitro
condition: human, HEK293T cells
# note: exactly 100 is not below, so it is false (0); use true (1) for selectivity ratio strictly under it

smiles: CCN(CC)CCCC(=O)O[C@@H]1C[C@@H]2CC[C@@]1(C)C2(C)C
group: false (0)
--
smiles: CCN(CC)CC(=O)O[C@@H]1C[C@@H]2CC[C@@]1(C)C2(C)C
group: true (1)
--
smiles: CC1CCN(CCCC(=O)N[C@@H]2C[C@H]3CC[C@]2(C)C3(C)C)CC1
group: true (1)
--
smiles: CN1CCN(CCC(=O)O[C@@H]2C[C@@H]3CC[C@@]2(C)C3(C)C)CC1
group: false (0)
--
smiles: CC1(C)[C@H]2CC[C@]1(C)[C@H](OC(=O)CCN1CCN(Cc3ccccc3)CC1)C2
group: false (0)
--
smiles: CC1(C)[C@H]2CC[C@]1(C)[C@H](OC(=O)CCCN1CCCCC1)C2
group: false (0)
--
smiles: CC1(C)[C@H]2CC[C@]1(C)[C@H](OC(=O)CN1CCCCC1)C2
group: true (1)
--
smiles: CC1CCN(CCCCC(=O)O[C@@H]2C[C@@H]3CC[C@@]2(C)C3(C)C)CC1
group: false (0)
--
smiles: CCN1CCN(CCCC(=O)O[C@@H]2C[C@@H]3CC[C@@]2(C)C3(C)C)CC1
group: false (0)
--
smiles: CC1(C)[C@H]2CC[C@]1(C)[C@H](OC(=O)CN1CCN(CCO)CC1)C2
group: true (1)
--
smiles: CCOC(=O)N1CCN(CC(=O)O[C@@H]2C[C@@H]3CC[C@@]2(C)C3(C)C)CC1
group: true (1)
--
smiles: CC1(C)[C@H]2CC[C@]1(C)[C@H](OC(=O)CCN1CCCCCC1)C2
group: true (1)
--
smiles: CN(C)CC(=O)O[C@@H]1C[C@@H]2CC[C@@]1(C)C2(C)C
group: true (1)
--
smiles: CCN1CCN(CCCC(=O)N[C@@H]2C[C@H]3CC[C@]2(C)C3(C)C)CC1
group: false (0)
--
smiles: CC1(C)[C@H]2CC[C@]1(C)[C@H](OC(=O)CN1CCN(CCN)CC1)C2
group: false (0)
--
smiles: CN(C)CCC(=O)O[C@@H]1C[C@@H]2CC[C@@]1(C)C2(C)C
group: true (1)
--
smiles: CC1(C)[C@H]2CC[C@]1(C)[C@H](OC(=O)CCCN1CCN(CCN)CC1)C2
group: false (0)
--
smiles: CC1CCN(CC(=O)O[C@H]2C[C@@H]3CC[C@@]2(C)C3(C)C)CC1
group: true (1)
--
smiles: CCOC(=O)N1CCN(CCCC(=O)O[C@@H]2C[C@@H]3CC[C@@]2(C)C3(C)C)CC1
group: true (1)

Data provenance: ChEMBL document CHEMBL4706564
